Biological target: Dual specificity calcium/calmodulin-dependent 3',5'-cyclic nucleotide phosphodiesterase 1A (Homo sapiens, UniProt P54750)
Sequence (P54750 whole entry): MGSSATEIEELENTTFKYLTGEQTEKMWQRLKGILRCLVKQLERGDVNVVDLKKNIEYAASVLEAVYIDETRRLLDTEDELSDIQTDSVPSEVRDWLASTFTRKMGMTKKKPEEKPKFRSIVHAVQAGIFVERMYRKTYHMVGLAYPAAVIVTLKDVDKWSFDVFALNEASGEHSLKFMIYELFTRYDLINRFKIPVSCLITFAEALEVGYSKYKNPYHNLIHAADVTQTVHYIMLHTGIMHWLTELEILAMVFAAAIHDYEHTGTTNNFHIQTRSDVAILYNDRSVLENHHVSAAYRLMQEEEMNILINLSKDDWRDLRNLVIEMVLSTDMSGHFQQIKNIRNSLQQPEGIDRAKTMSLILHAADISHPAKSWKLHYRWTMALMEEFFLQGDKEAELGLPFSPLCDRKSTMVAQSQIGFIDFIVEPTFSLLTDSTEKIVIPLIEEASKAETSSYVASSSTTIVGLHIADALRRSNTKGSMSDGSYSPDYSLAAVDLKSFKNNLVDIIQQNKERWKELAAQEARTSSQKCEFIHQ
Test: Binding affinity to PDE1A (unknown origin) by SPR assay
Kdiss values, listed per item
Your answer is read as ×10⁻⁶ M, so omit the unit and give the number.

Worked cases, Kdiss given:
* CC[C@@]12C=C(COC(=S)Nc3ccc(F)cc3)n3c4c(c5ccccc53)CCN(CCC1)[C@H]42 | 2.15
* CC[C@@]12C=C(COC(=S)Nc3cccc(F)c3)n3c4c(c5ccccc53)CCN(CCC1)[C@H]42 | 6.33

Next item in the queue.
Inquiry: Request the reported Kdiss associated with `CC[C@@]12C=C(COC(=S)NC3CCCCC3)n3c4c(c5ccccc53)CCN(CCC1)[C@H]42`
Reply text: 1.3
